target_of_assay: P84S variant of truncated E. coli SPase (Escherichia coli, UniProt P00803, P84S)
Construct: a truncated wild type E. coli SPase that lacks the N-terminal membrane helices
Sequence (P00803 76-324, looked up, stated change not applied): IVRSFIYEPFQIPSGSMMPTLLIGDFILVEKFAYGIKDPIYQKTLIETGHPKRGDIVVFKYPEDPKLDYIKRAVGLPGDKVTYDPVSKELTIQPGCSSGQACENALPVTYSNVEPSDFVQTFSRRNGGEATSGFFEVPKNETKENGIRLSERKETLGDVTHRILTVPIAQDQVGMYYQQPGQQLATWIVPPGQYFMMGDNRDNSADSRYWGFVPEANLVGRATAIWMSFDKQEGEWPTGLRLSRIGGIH
assay_notes: biochemical
measurement_type: pKd
Answers are plain numbers, as −log10 of the molar value.

Request: Write down pKd measured for item CCCCCCCCCCCCCCCC(=O)N(C)[C@H](CO)C(=O)N[C@H](C)C(=O)NCC(=O)N(C)[C@@H]1C(=O)N[C@@H](C)C(=O)N[C@H](C(=O)O)Cc2ccc(O)c(c2)-c2cc1ccc2O [Arylomycin C16]
Response: 7.41

----------
Test system: wild type S. epidermidis RP62A
assay_notes: microbe, parasite or virus in culture
Format: cell-based, Staphylococcus epidermidis
measurement_type: MIC, Sensitive Se (µg/mL)
One number for each entry, in µg/mL.

Some compounds with known MIC, Sensitive Se results, for comparison:
Request: Hello, please tell me recorded MIC, Sensitive Se for this one: CCCCCCCCCCCCCCCC(=O)N(C)C(CO)CCC(=O)NC(C)C(=O)NCC(=O)N(C)C1C(=O)NC(C)C(=O)NC(C(=O)O)Cc2ccc(O)c(c2)-c2cc1ccc2O (stereo not shown)
Response: 8

Request: Report measured MIC, Sensitive Se; entry is CCCCCCCCCCCCCCCC(=O)N1CC(O)CC1C(=O)NC(C)C(=O)NCC(=O)N(C)C1C(=O)NC(C)C(=O)NC(C(=O)O)Cc2ccc(O)c(c2)-c2cc1ccc2O (stereo not shown)
Response: 4

Next:
Request: Answer with reported MIC, Sensitive Se of CCCCCCCCCCCCCCCC(=O)N[C@H](CO)C(=O)N[C@H](C)C(=O)NCC(=O)N(C)[C@@H]1C(=O)N[C@@H](C)C(=O)N[C@H](C(=O)O)Cc2ccc(O)c(c2)-c2cc1ccc2O
Response: 1

----------
System: wild type P. aeruginosa PAO1
assay_notes: microbe, parasite or virus in culture
Format: cell-based, Pseudomonas aeruginosa
For each entry below, report its MIC, Resistant Pa value.

Completed entries (count: 3):
Request: Please give the documented MIC, Resistant Pa of CCCCCCCCCCCCCCCC(=O)N[C@H](CO)C(=O)N[C@H](C)C(=O)NCC(=O)N(C)[C@@H]1C(=O)N[C@@H](C)C(=O)N[C@H](C(=O)O)Cc2ccc(O)c(c2)-c2cc1ccc2O [Compound 17]
Response: >64 µg/mL

Request: Supply recorded MIC, Resistant Pa for CCCCCCCCCCCCCCCC(=O)N(C)[C@H](CO)C(=O)N(C)[C@H](C)C(=O)NCC(=O)N(C)[C@@H]1C(=O)N[C@@H](C)C(=O)N[C@H](C(=O)O)Cc2ccc(O)c(c2)-c2cc1ccc2O [Compound 18] here.
Response: >64 µg/mL

Request: Provide one value: measured MIC, Resistant Pa of CCCCCCCCCCCCCCCC(=O)N(C)C(CO)CCC(=O)NC(C)C(=O)NCC(=O)N(C)C1C(=O)NC(C)C(=O)NC(C(=O)O)Cc2ccc(O)c(c2)-c2cc1ccc2O (stereo not shown) [Compound 24]
Response: >64 µg/mL

Field: next compound
Request: Specify MIC, Resistant Pa for CCCCCCCCCCCCCCCC(=O)N1CC(O)CC1C(=O)NC(C)C(=O)NCC(=O)N(C)C1C(=O)NC(C)C(=O)NC(C(=O)O)Cc2ccc(O)c(c2)-c2cc1ccc2O (stereo not shown) [Compound 19] and stop.
Response: >64 µg/mL

Data credit: patent US9187524B2
